Target: human M4 muscarinic acetylcholine receptor (Homo sapiens)
Sequence (P08173 whole entry): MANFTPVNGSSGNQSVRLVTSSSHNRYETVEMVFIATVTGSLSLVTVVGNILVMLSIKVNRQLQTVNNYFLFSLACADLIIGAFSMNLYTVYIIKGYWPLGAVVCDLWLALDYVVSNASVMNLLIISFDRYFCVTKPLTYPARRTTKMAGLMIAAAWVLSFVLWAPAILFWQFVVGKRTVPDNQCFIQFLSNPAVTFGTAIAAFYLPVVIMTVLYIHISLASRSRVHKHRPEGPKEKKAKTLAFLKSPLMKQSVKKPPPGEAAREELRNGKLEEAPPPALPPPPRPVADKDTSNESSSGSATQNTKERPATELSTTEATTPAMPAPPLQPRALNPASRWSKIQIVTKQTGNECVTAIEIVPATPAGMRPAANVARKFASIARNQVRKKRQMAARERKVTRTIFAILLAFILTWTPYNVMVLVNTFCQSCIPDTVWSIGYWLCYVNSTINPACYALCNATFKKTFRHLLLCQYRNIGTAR
Assay: human FLIPR-based M4 PAM assay, CHO-K1 cells stably transfected with human M4 receptor and chimeric G-protein Gαqi5
Conditions: inflection point (IP) of dose response curve; acetylcholine added at 20% of maximum response; CHO-K1 human M4/Gαqi5, FLIPR Tetra
Readout Name: EC50 (µM)

                                compound                           target_of_assay  recorded_number
0  CCCc1ncnc(N2CCC(Oc3ccc(OC)nc3)CC2)c1C  human M4 muscarinic acetylcholine receptor (Homo sapiens)             1.55

A. COc1ccc(OC2CCN(c3nnc(C(=O)NCc4ccccc4Cl)cc3C)CC2)cn1
B. CSc1ncc(C#N)c(N2CCC(Oc3cccnc3)CC2)n1 [Example 95A]
Between A and B , which one shows the smaller EC50 number? Refer to your chosen item by its label in the answer.
A
(A: 0.057 µM, B: 4.94 µM)

P. CCCCc1ncnc(N2CCC(Oc3ccc(OC)nc3)CC2)c1C
Q. Cc1c(-c2ccoc2)ncnc1N1CCC(Oc2cccc(C#N)c2)CC1
R. COc1ccc(OC2CCN(c3nc(Cl)nc(Cl)c3C)CC2)cc1
S. COc1ccc(OC2CCN(c3nnc(C(=O)N[C@@H]4CCc5cccnc5C4)cc3C)CC2)cn1 [Example 126A]
# sort list by recorded EC50, greatest to least Output spec: a listing of the labels in the requested order.
P, Q, R, S

----------
Target: human M4 muscarinic acetylcholine receptor (Homo sapiens)
Assay: human FLIPR-based M4 PAM assay, CHO-K1 cells stably transfected with human M4 receptor and chimeric G-protein Gαqi5
Settings: inflection point (IP) of dose response curve; acetylcholine added at 20% of maximum response; CHO-K1 human M4/Gαqi5, FLIPR Tetra
Readout Name: EC50 (nM)

Take a look at these entries with their results.
>>> df
                                   compound  recorded_number
0  COc1ccc(OC2CCN(c3nnc(C(=O)NCc4ccncc4)cc3C)CC2)cc1 [Example 101]              129
1  Cc1cc(C(=O)N[C@@H]2CCc3cccnc3C2)nnc1N1CCC(Oc2cccc(C#N)c2)CC1 [Example 164B]              338
2  COc1ccc(OC2CCN(c3nnc(C(=O)N[C@@H]4CCc5ncccc5C4)cc3C)CC2)cn1 [Example 141A]               57
3  Cc1cc(C(=O)NCc2ccccc2)nnc1N1CCC(Oc2cccc(C#N)c2)CC1 [Example 194]               51
4  COc1ccc(OC2CCN(c3nc(C)ncc3C)CC2)cc1 [Example 69]              126
5  COc1ccc(OC2CCN(c3nnc(C(=O)NCc4nncs4)cc3C)CC2)cn1 [Example 113]               44

I. COc1ccc(OC2CCN(c3nc(C)nc(Cl)c3C)CC2)cc1 [Example 62]
II. COc1ccc(OC2CCN(c3nc(C(=O)NC4CCc5ccccc5C4)nc(Cl)c3C)CC2)cn1 (stereo not drawn) [Example 221]
III. Cc1ncc(C)c(N2CCC(Oc3cccc(C#N)c3)CC2)n1 [Example 76]
IV. COc1ccc(OC2CCN(c3nnc(-c4noc(C)n4)cc3C)CC2)cn1 [Example 264]
Rank descending by EC50. A complete answer lists every label in the requested sequence.
II, IV, III, I
(II: 1830 nM, IV: 399 nM, III: 172 nM, I: 94 nM)

P. Cc1c(Cl)nc(CO)nc1N1CCC(Oc2ccc3c(c2)CCCC3=O)CC1 [Example 36]
Q. COc1ccc(OC2CCN(c3nnc(C(=O)NCc4ccc(S(C)(=O)=O)cc4)cc3C)CC2)cn1 [Example 174]
Please indicate which entry, P or Q , has the lower recorded EC50 value. Reply with the label of the item you choose.
P
(P: 222 nM, Q: 563 nM)

1. COc1ccc(OC2CCN(c3ncncc3Br)CC2)cn1 [Example 95D]
2. Cc1nc(Cl)c(C)c(N2CCC(Oc3cccnc3)CC2)n1 [Example 12]
Between the two listed entries 1 and 2 , which has its EC50 at the higher number? When you have decided, please share the label of that item.
1
